protocol text: Inhibition of PI3K (unknown origin) using PIP2 as substrate measured after 2 hrs by luciferase-luciferin […] assay
Design: species or system Homo sapiens
property: IC50

IC50 in this record for Cc1cc(N2CCC(F)(F)C2)cc2c(N3CCc4ccc(C(=O)N5CCC(N)CC5)cc4C3)ncnc12 : < 500 nM

---

experimental system: Receptor tyrosine-protein kinase erbB-2 (Homo sapiens, UniProt P04626)
Sequence (P04626 whole entry): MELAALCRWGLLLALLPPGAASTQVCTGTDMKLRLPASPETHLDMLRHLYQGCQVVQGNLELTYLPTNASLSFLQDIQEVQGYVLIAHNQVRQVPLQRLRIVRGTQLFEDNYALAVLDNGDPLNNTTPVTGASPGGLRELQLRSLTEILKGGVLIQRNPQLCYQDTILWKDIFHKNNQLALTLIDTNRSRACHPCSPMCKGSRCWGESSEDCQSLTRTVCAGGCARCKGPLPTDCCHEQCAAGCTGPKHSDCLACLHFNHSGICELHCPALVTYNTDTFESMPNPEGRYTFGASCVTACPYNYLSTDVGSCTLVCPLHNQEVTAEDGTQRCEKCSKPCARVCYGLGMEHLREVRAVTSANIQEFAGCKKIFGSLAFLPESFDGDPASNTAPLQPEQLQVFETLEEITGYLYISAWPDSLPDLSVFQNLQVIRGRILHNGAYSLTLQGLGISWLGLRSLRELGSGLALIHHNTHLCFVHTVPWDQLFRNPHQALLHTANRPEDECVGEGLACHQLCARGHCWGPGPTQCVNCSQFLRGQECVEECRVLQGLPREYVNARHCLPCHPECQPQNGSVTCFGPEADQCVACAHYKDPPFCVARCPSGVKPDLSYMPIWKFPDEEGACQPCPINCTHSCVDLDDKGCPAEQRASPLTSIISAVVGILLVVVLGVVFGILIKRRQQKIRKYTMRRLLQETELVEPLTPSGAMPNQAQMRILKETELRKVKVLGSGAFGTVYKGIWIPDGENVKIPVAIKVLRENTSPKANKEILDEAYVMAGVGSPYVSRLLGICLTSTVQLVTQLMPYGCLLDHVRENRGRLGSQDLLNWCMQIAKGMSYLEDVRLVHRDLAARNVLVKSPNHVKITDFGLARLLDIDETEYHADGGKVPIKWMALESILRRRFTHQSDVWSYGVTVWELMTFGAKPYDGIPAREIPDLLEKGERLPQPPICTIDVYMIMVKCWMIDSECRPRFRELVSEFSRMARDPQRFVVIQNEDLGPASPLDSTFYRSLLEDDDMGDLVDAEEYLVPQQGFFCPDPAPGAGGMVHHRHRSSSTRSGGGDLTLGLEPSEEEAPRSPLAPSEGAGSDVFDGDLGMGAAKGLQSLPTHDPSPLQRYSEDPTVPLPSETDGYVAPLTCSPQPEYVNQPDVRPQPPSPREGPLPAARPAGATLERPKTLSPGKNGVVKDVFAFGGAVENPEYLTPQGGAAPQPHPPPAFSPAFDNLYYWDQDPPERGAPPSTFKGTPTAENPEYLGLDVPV
property: pIC50
Here pIC50 is given on a logarithmic scale as minus log10 of the concentration in mol/L.

// assay Receptor tyrosine-protein kinase erbB-2 (Homo sapiens, UniProt P04626), entry CCOc1cc2ncc(C#N)c(Nc3ccc(OCc4ccccn4)c(F)c3)c2cc1NC(=O)/C=C/CN(C)C , pIC50 value = 7.23
